Hello, the source for this data is patent US12600709B2, in case you need it.

target: human somatostatin receptor subtype 5 (Homo sapiens, UniProt P35346); construct: expressed in transfected cells; assay: cAMP assay for SST5R (inhibition of cAMP in CHO-K1 cells); type: cell-based; conditions: Table B; class symbols; SST5 receptor over SST2 receptor
Sequence (P35346 whole entry): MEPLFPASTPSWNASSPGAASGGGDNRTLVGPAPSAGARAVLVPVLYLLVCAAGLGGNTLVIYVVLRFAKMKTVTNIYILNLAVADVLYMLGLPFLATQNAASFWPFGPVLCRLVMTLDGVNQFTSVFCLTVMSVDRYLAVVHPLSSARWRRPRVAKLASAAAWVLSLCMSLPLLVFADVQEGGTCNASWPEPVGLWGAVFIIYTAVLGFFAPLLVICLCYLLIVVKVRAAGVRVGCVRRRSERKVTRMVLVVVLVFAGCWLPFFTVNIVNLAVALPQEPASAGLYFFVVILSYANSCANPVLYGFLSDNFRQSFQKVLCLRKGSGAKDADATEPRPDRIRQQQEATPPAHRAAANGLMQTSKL
Endpoint: Fold selectivity for SST5 vs SST2

CCOC(=O)COc1ncc(C(=O)NC2CCC(F)(F)CC2)c(N2CC[C@H](N)C2)c1-c1cc(F)cc(F)c1 | +++ (+++=>500)
Cc1ncc(C(=O)NC23CC(F)(C2)C3)c(N2CC[C@H](N)C2)c1-c1cc(F)cc(Cl)c1 | +++ (+++=>500)
C[C@H](NC(=O)c1cnc(OCc2ccccc2)c(-c2cc(F)cc(F)c2)c1N1CC[C@](C)(N)C1)C1CC1 | +++ (+++=>500)
C[C@H](NC(=O)c1cncc(-c2cc(F)cc(F)c2)c1N1CC[C@](C)(N)C1)C1CC1 | ++ (++=100 to 499)
C[C@]1(N)CCN(c2c(C(=O)NC3CCCCCC3)ccnc2-c2cc(F)cc(F)c2)C1 | +++ (+++=>500)

**Query** Given `COc1cc(C#N)cc(-c2cncc(C(=O)NC34CC(C3)C4)c2N2CC[C@](C)(N)C2)c1` , respond with its Fold selectivity for SST5 vs SST2.
**Result** ++ (++=100 to 499)

**Query** Given `N[C@H]1CCN(c2c(C(=O)NC34CC(F)(C3)C4)cnc(C(F)(F)F)c2-c2cc(F)cc(F)c2)C1` , respond with its Fold selectivity for SST5 vs SST2.
**Result** +++ (+++=>500)

**Query** Given `COc1ncc(C(=O)NCc2ccon2)c(N2CC[C@](C)(N)C2)c1-c1cc(F)cc(Cl)c1` , respond with its Fold selectivity for SST5 vs SST2.
**Result** +++ (+++=>500)
